target: CYP3A4 (CYP3A) (Homo sapiens); experiment: in vitro; conditions: microsomes, pH 7.4;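 note: inhibition of CYP3A-mediated 1-hydroxymidazolam formation after 10 min incubation with NADPH, quantified by HPLC MS relative to metabolite produced without test compound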
Sequence (P08684 2-503): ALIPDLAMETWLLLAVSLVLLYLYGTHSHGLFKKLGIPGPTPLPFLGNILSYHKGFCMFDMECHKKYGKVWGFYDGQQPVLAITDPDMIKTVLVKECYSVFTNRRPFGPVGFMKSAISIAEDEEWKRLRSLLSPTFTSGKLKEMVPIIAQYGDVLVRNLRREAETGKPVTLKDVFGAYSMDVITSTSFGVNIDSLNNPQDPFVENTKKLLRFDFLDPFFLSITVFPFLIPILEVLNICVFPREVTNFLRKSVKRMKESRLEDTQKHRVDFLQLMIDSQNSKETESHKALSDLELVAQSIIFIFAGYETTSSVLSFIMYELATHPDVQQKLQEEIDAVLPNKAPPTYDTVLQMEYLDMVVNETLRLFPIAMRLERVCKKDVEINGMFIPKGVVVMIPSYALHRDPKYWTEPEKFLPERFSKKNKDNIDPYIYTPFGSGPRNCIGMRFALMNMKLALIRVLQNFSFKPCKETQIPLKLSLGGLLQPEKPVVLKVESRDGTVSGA
pIC50: −log10 of the molar value.
ENDPOINT: pIC50

- COMPOUND: "C#Cc1cnc2c(c1)[C@@H](NC[C@@H](O)[C@H](Cc1cc(F)cc(-c3nccs3)c1)NC(=O)[C@@H](C)OC)CC1(CCC1)O2 [compound 784]"
  TGT: "CYP3A4 (CYP3A) (Homo sapiens)"
  INEQUALITY_OPERATOR: "≥"
  QUANTITATIVE_RESULT: 7.52
- COMPOUND: "COCC(=O)N[C@@H](Cc1ccc(-c2nccs2)c(F)c1)[C@H](O)CN[C@H]1CC2(CCC2)Oc2ncc(CC(C)(C)C)cc21 [Example 730]"
  TGT: "CYP3A4 (CYP3A) (Homo sapiens)"
  INEQUALITY_OPERATOR: "≥"
  QUANTITATIVE_RESULT: 7.52
- COMPOUND: "CO[C@H](C)C(=O)N[C@@H](Cc1cccc(F)c1)[C@H](O)CN[C@@H]1CC2(CCC2)Oc2c1cc(CC(C)(C)C)nc2-n1ccnc1 [compound 501]"
  TGT: "CYP3A4 (CYP3A) (Homo sapiens)"
  INEQUALITY_OPERATOR: "="
  QUANTITATIVE_RESULT: 7.00
- COMPOUND: "COCC(=O)N[C@@H](Cc1cccc(F)c1)[C@H](O)CN[C@H]1CC2(CCC2)Oc2c(-c3ccncc3)cc(CC(C)(C)C)cc21 [Example 535]"
  TGT: "CYP3A4 (CYP3A) (Homo sapiens)"
  INEQUALITY_OPERATOR: "="
  QUANTITATIVE_RESULT: 7.00
- COMPOUND: "Cc1nc(CN2CCO[C@@H](C(=O)N[C@@H](Cc3ccc(F)cc3)[C@H](O)CN[C@H]3CC4(CCC4)Oc4ncc(CC(C)(C)C)cc43)C2)cs1 [compound 755]"
  TGT: "CYP3A4 (CYP3A) (Homo sapiens)"
  INEQUALITY_OPERATOR: "="
  QUANTITATIVE_RESULT: 6.52

----------
tested on: Aβ40 in conditioned medium of cells stably expressing Amyloid Precursor Protein (APP); assay: In vitro BACE cell-based assay (Aβ40 in conditioned medium, sandwich ELISA); settings: Homo sapiens, HEK293, HEK cell-based assay IC50; read-out: HEK cell assay;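 note: compounds added as a dilution series, secreted peptide quantified by europium time-resolved fluorescence readout, potency fitted from percent of control versus compound concentration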
ENDPOINT: log10(IC50) (log10 of the value in nM)

- COMPOUND: "COCC(=O)N[C@@H](Cc1ccc(F)cc1)[C@H](O)CN[C@H]1CC(C)(C)Oc2c1cc(CC(C)C)c1c2OCO1 [Example 747]"
  QUANTITATIVE_RESULT: 2.39
- COMPOUND: "COCC(=O)N[C@H](Cc1cccc(-c2nccs2)c1)[C@@H](O)CN[C@H]1CC2(CCC2)Oc2ccc(CC(C)(C)C)cc21 [compound 701]"
  QUANTITATIVE_RESULT: 1.52
- COMPOUND: "CO[C@H](C)C(=O)N[C@@H](Cc1cc(F)cc(-c2nccs2)c1)[C@H](O)CN[C@H]1CC2(CCC2)Oc2c1cc(CC(C)C)nc2Cl [compound 752]"
  QUANTITATIVE_RESULT: 1.83
- COMPOUND: "CC(=O)N[C@@H](Cc1ccc2c(c1)OCO2)[C@H](O)CN[C@H]1CC(C)(C)Oc2ncc(CC(C)(C)C)cc21 [compound 679]"
  QUANTITATIVE_RESULT: 1.08
- COMPOUND: "CO[C@H](C)C(=O)N[C@@H](Cc1ccc2c(c1)OCO2)[C@H](O)CN[C@H]1CC(C)(C)Oc2ncc(CC(C)(C)C)cc21 [compound 674]"
  QUANTITATIVE_RESULT: 1.57
- COMPOUND: "CO[C@H](C)C(=O)N[C@@H](Cc1cc(F)cc(-c2nccs2)c1)[C@H](O)CN[C@H]1CC2(CCC2)Oc2ncc(CC(C)(C)C)cc21 [compound 738]"
  QUANTITATIVE_RESULT: 1.00
- COMPOUND: "CC(=O)N[C@@H](Cc1cc(F)cc(-c2cscn2)c1)[C@H](O)CN[C@H]1CC2(CCC2)Oc2ncc(CC(C)(C)C)cc21 [compound 672]"
  QUANTITATIVE_RESULT: 0.70
- COMPOUND: "COCC(=O)N[C@@H](Cc1cc(F)cc(F)c1)[C@H](O)CN[C@H]1CC2(CCC2)Oc2c1cc(CC(C)C)nc2-c1cncn1C [compound 715]"
  QUANTITATIVE_RESULT: 1.20
- COMPOUND: "CC(C)(C)Cc1cnc2c(c1)[C@@H](NC[C@@H](O)[C@H](Cc1ccc(F)cc1)NC(=O)[C@H]1CN(Cc3ccccc3)CCO1)CC1(CCC1)O2 [compound 717]"
  QUANTITATIVE_RESULT: 1.04
- COMPOUND: "Cc1cccc(CN2CCO[C@@H](C(=O)N[C@@H](Cc3ccc(F)cc3)[C@H](O)CN[C@H]3CC4(CCC4)Oc4ncc(CC(C)(C)C)cc43)C2)c1 [compound 685]"
  QUANTITATIVE_RESULT: 1.08
- COMPOUND: "COCC(=O)N[C@@H](Cc1cc(F)cc(-c2nccs2)c1)[C@H](O)CN[C@H]1CC2(CCC2)Oc2ncc(C3CC3)cc21 [compound 749]"
  QUANTITATIVE_RESULT: 1.87
- COMPOUND: "CNc1nc(CC(C)C)cc2c1OC1(CCC1)C[C@@H]2NC[C@@H](O)[C@H](Cc1ccc2c(c1)OCO2)NC(=O)COC [compound 681]"
  QUANTITATIVE_RESULT: 1.15
- COMPOUND: "CCc1cnc2c(c1)[C@@H](NC[C@@H](O)[C@H](Cc1cc(F)cc(-c3nccs3)c1)NC(=O)COC)CC1(CCC1)O2 [compound 728]"
  QUANTITATIVE_RESULT: 2.03
- COMPOUND: "COCC(=O)N[C@@H](Cc1cc(F)cc(-c2nc(C)cs2)c1)[C@H](O)CN[C@H]1CC2(CCC2)Oc2ncc(CC(C)C)cc21 [compound 733]"
  QUANTITATIVE_RESULT: 1.32
- COMPOUND: "CO[C@H](C)C(=O)N[C@@H](Cc1ccc2c(c1)OCO2)[C@H](O)CN[C@H]1CC2(CCC2)Oc2c1cc(CC(C)C)nc2-c1ccncc1 [compound 670]"
  QUANTITATIVE_RESULT: 2.47

----------
biological target: Beta Secretase enzyme (BACE) (Homo sapiens); experiment: In vitro enzymatic BACE FRET (fluorescence resonance energy transfer) assay; format: biochemical; conditions: Table 1; read-out: BACE1 FRET assay;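 note: fluorescence read after 1 h with 50 nM quenched peptide substrate spanning the BACE cleavage site, in pH 4.2 acetate buffer containing 10% DMSO and nonionic detergent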
Sequence (P56817 46-501): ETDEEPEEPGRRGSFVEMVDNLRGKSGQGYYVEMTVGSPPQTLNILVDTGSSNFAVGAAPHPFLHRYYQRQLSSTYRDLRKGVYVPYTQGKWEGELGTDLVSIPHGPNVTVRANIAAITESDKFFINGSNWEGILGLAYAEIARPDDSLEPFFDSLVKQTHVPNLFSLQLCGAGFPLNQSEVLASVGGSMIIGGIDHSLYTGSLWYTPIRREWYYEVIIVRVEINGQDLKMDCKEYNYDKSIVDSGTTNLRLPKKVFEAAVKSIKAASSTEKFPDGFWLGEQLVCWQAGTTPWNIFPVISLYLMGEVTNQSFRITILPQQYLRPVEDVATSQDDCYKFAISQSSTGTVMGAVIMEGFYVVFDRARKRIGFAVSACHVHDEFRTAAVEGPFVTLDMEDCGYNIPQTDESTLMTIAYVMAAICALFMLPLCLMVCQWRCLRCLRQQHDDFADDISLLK
ENDPOINT: IC50 (nM)

- MOLECULE_SMILES: "CC(=O)N[C@@H](Cc1ccccc1)[C@H](O)CN[C@H]1CC2(CCC2)Oc2ncc(CC3(C(F)(F)F)CC3)cc21"
  QUANTITATIVE_RESULT: 34.7
- MOLECULE_SMILES: "COCC(=O)N[C@@H](Cc1ccc2c(c1)OCO2)[C@H](O)CN[C@H]1CC2(CCC2)Oc2nc(F)c(CC(C)C)cc21"
  QUANTITATIVE_RESULT: 120
- MOLECULE_SMILES: "COC(=O)N[C@@H](Cc1ccc2c(c1)OCO2)[C@H](O)CN[C@H]1CC2(CCC2)Oc2ncc([C@H](F)C(C)(C)C)cc21"
  QUANTITATIVE_RESULT: 199
- MOLECULE_SMILES: "CO[C@H](C)C(=O)N[C@@H](Cc1ccc2c(c1)OCO2)[C@H](O)CN[C@H]1CC2(CCC2)Oc2ncc(C[C@@H](C)C(F)(F)F)cc21"
  QUANTITATIVE_RESULT: 175
- MOLECULE_SMILES: "COCC(=O)N[C@@H](Cc1ccccc1)[C@H](O)CN[C@H]1CC2(CCC2)Oc2ncc(CC(C)C)cc21"
  QUANTITATIVE_RESULT: 9.19
- MOLECULE_SMILES: "COCC(=O)N[C@@H](Cc1ccccc1)[C@H](O)CN[C@H]1CC2(CCC2)Oc2ncc(CC3(C(F)(F)F)CC3)cc21"
  QUANTITATIVE_RESULT: 55.8
- MOLECULE_SMILES: "CO[C@H](C)C(=O)N[C@@H](Cc1ccc2c(c1)OCO2)[C@H](O)CN[C@H]1CC2(CCC2)Oc2ncc(C[C@H](C)C(F)(F)F)cc21"
  QUANTITATIVE_RESULT: 148
- MOLECULE_SMILES: "COCC(=O)N[C@@H](Cc1cccc(F)c1)[C@H](O)CN[C@H]1CC2(CCC2)Oc2ncc(CC(C)C)cc21"
  QUANTITATIVE_RESULT: 3.26

----------
test: Microsomal stability assay, rat liver microsomes; settings: rat liver microsomal data;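 note: rat liver microsomes (0.25 mg/mL) with about 1 µM compound plus 1 mM NADPH, pH 7.4, 37 °C for 30 min, parent left measured by LC-MS/MS against 0 min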
Reported RLM values for a set of compounds
ENDPOINT: RLM (µL/min/mg)

- MOLECULE_SMILES: "CC(=O)CC(=O)N[C@@H](Cc1cccc(F)c1)[C@H](O)CN[C@H]1CC2(CCC2)Oc2ncc(CC(C)(C)C)cc21"
  ENDPOINT: "RLM"
  READOUT_UNITS: "µL/min/mg"
  QUANTITATIVE_RESULT: 165
- MOLECULE_SMILES: "COCC(=O)N[C@@H](Cc1cccc(Br)c1)[C@H](O)CN[C@H]1CC2(CCC2)Oc2ncc(CC(C)C)cc21"
  ENDPOINT: "RLM"
  READOUT_UNITS: "µL/min/mg"
  QUANTITATIVE_RESULT: 459
- MOLECULE_SMILES: "COCC(=O)N[C@@H](Cc1cccc(F)c1)[C@H](O)CN[C@H]1CC2(CCC2)Oc2c(-c3ccncc3)cc(CC(C)(C)C)cc21"
  ENDPOINT: "RLM"
  READOUT_UNITS: "µL/min/mg"
  QUANTITATIVE_RESULT: 79
- MOLECULE_SMILES: "CCO[C@H](C)C(=O)N[C@@H](Cc1ccc2c(c1)OCO2)[C@H](O)CN[C@H]1CC2(CCC2)Oc2ncc(CC(C)C)cc21"
  ENDPOINT: "RLM"
  READOUT_UNITS: "µL/min/mg"
  QUANTITATIVE_RESULT: 179
- MOLECULE_SMILES: "CC(=O)N[C@@H](Cc1cc(F)cc(F)c1)[C@H](O)CN[C@H]1CC2(CCC2)Oc2c1cc(CC(C)(C)C)nc2-n1ccnc1"
  ENDPOINT: "RLM"
  READOUT_UNITS: "µL/min/mg"
  QUANTITATIVE_RESULT: 51.5
- MOLECULE_SMILES: "CO[C@H](C)C(=O)N[C@@H](Cc1ccc(F)cc1)[C@H](O)CN[C@H]1CC2(CCC2)Oc2c1cc(CC(C)C)cc2-n1ccnc1"
  ENDPOINT: "RLM"
  READOUT_UNITS: "µL/min/mg"
  QUANTITATIVE_RESULT: 194
- MOLECULE_SMILES: "COCC(=O)N[C@@H](Cc1cc(F)cc(-c2nccs2)c1)[C@H](O)CN[C@H]1CC2(CCC2)Oc2cnc(CC(C)(C)C)cc21"
  ENDPOINT: "RLM"
  READOUT_UNITS: "µL/min/mg"
  QUANTITATIVE_RESULT: 130
- MOLECULE_SMILES: "COC(OC)C(=O)N[C@@H](Cc1ccc2c(c1)OCO2)[C@H](O)CN[C@H]1CC2(CCC2)Oc2ncc(CC(C)(C)C)cc21"
  ENDPOINT: "RLM"
  READOUT_UNITS: "µL/min/mg"
  QUANTITATIVE_RESULT: 94
